Values from patent US9249129B2

Target: kinases (kinome) (Homo sapiens, UniProt Q13233)
Construct: determined in kinobeads assays with mass spectrometry detection of kinases as described previously; endogenous in cells
Sequence (Q13233 whole entry): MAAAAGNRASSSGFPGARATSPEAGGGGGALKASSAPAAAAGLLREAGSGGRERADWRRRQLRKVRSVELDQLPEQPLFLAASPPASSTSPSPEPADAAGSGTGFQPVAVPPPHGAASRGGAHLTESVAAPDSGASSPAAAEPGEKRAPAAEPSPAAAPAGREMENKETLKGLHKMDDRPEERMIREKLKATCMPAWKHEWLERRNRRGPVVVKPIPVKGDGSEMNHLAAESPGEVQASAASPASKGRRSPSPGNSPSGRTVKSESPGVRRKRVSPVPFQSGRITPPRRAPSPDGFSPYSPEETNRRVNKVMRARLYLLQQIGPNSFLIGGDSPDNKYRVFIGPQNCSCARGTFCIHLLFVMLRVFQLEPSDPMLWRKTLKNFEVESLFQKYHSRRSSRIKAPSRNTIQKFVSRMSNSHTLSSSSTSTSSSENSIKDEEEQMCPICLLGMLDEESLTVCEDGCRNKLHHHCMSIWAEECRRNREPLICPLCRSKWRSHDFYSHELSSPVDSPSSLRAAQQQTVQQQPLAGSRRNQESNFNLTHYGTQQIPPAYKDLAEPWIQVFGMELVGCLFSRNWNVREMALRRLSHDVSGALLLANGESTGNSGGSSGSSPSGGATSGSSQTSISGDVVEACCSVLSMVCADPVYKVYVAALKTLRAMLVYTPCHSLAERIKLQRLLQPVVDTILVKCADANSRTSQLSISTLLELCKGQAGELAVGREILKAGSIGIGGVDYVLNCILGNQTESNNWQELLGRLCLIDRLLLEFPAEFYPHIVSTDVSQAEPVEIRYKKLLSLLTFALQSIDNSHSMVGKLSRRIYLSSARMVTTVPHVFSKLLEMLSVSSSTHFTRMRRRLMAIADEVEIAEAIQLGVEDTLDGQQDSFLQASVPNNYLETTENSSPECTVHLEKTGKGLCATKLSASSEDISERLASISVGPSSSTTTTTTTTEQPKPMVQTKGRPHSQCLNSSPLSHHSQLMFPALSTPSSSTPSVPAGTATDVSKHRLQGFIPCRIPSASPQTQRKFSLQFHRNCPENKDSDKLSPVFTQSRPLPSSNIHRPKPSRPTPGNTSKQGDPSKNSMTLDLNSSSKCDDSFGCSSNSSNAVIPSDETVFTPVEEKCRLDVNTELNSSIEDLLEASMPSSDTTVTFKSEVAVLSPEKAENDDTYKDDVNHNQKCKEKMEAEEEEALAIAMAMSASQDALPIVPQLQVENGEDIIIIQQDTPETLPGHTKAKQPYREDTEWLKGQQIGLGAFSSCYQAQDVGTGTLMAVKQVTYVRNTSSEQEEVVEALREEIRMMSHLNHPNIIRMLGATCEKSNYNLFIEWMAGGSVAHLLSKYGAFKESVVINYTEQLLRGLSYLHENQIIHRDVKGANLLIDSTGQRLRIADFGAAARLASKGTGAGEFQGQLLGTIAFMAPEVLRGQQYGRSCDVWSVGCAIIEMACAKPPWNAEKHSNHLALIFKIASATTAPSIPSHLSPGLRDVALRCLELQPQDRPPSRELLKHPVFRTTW
Test: kinobeads assay with mass spectrometry detection of kinases (kinase selectivity profile)
Conditions: MAP3K1 (STE), IPI00855985
As shown below, each of these compounds has a reported IC50 value.

Worked cases, IC50 given:
C[C@H]1COCCN1c1nc(-c2ccc(NC(=O)N[C@H]3CCC[C@@H]3O)cc2)cc(-c2cc(F)ccc2S(C)(=O)=O)n1 [Example 76]
> 10 µM
CCNC(=O)Nc1ccc(-c2cc(-c3ccccc3C#N)nc(N3CCOC[C@@H]3C)n2)cc1 [Example 8]
> 10 µM
C[C@H]1COCCN1c1cc(-c2ccccn2)nc(-c2ccc(NC(=O)NCCO)cc2)n1 [Example 43]
> 10 µM
C[C@H]1COCCN1c1nc(-c2ccc(NC(=O)NC3CC3)cc2)cc(-c2cccnc2S(C)(=O)=O)n1 [Example 46]
> 10 µM

IC50 reported for this compound C[C@H]1COCCN1c1cc(-c2ccccc2S(C)(=O)=O)nc(-c2ccc(NC(=O)NC3CC3)cc2)n1 [Example 6] : > 10 µM

IC50 reported for this compound C[C@H]1COCCN1c1nc(-c2ccc(NC(=O)NC3CC3)cc2)cc(-c2cc(F)ccc2S(C)(=O)=O)n1 [Example 40] : > 10 µM

IC50 reported for this compound C[C@H]1COCCN1c1nc(-c2ccc(NC(=O)NC3CC3)cc2)cc(-c2ccccc2S(C)(=O)=O)n1 [Example 4] : > 10 µM
